System: SKBR3 (PI3Kα wild type) cells
Assay: CellTiter-Glo 2.0 luminescent cell viability assay, 72 hours, SKBR3 cells
Type: cell-based
Conditions: Homo sapiens, SK-BR-3, 72 h, read-out: SKBR3 (WT) Viability IC50 (nM)
Endpoint: IC50

Which IC50 is reported for this molecule? Cc1cc(C(C)Nc2ccccc2C(=O)O)c2nc(N3CCOCC3)cc(=O)n2c1 (stereo not drawn)
> 10000 nM

Which IC50 is reported for this molecule? Cc1cc([C@@H](C)Nc2ccccc2C(=O)O)c2nc(N3CCN(c4ccc(C#N)c5cnccc45)CC3)c(C)c(=O)n2c1
7640 nM

Which IC50 is reported for this molecule? Cc1cc(C(C)Nc2ccccc2C(=O)O)c2nc(-c3ccccc3)cc(=O)n2c1 (stereo not drawn)
> 10000 nM

Which IC50 is reported for this molecule? Cc1cc(C(C)Nc2ccccc2C(=O)O)c2nc(N3CCCCC3)cc(=O)n2c1 (stereo not drawn)
> 10000 nM

Which IC50 is reported for this molecule? Cc1cc([C@@H](C)Nc2ccccc2C(=O)O)c2nc(N3C4CCC3CC(c3ccnn3C)C4)c(C)c(=O)n2c1 (stereo partly drawn)
> 10000 nM

Which IC50 is reported for this molecule? Cc1cc(C(C)Nc2ccccc2C(=O)O)c2nc(C)cc(=O)n2c1 (stereo not drawn)
> 10000 nM
